Each entry below carries its reported ED50.
organism: Mus musculus; test: Muscle relaxation was determined by using rotatory drum (rotarod) in mice, activity is expressed as ED50 values; assay type: functional
Kindly answer with a numeric value in mg/kg, unit omitted.

As a guide, the following entries are already answered.
COMPOUND_SMILES: Clc1ccc2c(c1)C(c1ccccc1)=NCc1nncn1-2
UNITS_LABEL: mg/kg
ED50: 5.44
//
COMPOUND_SMILES: Cc1nnc(CNC(=O)CN)n1-c1ccc(Cl)cc1C(=O)c1ccccc1
UNITS_LABEL: mg/kg
ED50: 3.94
//
COMPOUND_SMILES: Cc1nnc(CNC(=O)CN)n1-c1ccc(Cl)cc1C(=O)c1ccccc1F
UNITS_LABEL: mg/kg
ED50: 1.84
//
COMPOUND_SMILES: NCC(=O)NCc1nncn1-c1ccc(Cl)cc1C(=O)c1ccccc1
UNITS_LABEL: mg/kg
ED50: 11.8

// below: ED50 requested for another molecule
query: What measured ED50 goes with CN(C(=O)CNC(=O)CN)c1ccc(Cl)cc1C(=O)c1ccccc1 ?
result: 29.3

* * *

species: Mus musculus; experiment: Sedative activity was determined by measuring the loss of the righting reflux induced by chlorprothixene in mice; assay type: functional
I'd appreciate it if you marked entries yes (1) when ED50 is lower than 0.5 mg/kg and no (0) when it is not.

COMPOUND: Cc1nnc(CNC(=O)CN)n1-c1ccc(Cl)cc1C(=O)c1ccccc1Cl
GROUP: no (0)

COMPOUND: Clc1ccc2c(c1)C(c1ccccc1)=NCc1nncn1-2
GROUP: no (0)

COMPOUND: Cc1nnc2n1-c1ccc(Cl)cc1C(c1ccccc1)=NC2
GROUP: yes (1)

COMPOUND: Cc1nnc(CNC(=O)C(N)Cc2ccccc2)n1-c1ccc(Cl)cc1C(=O)c1ccccc1Cl (centres undefined)
GROUP: yes (1)

COMPOUND: CN(C(=O)CNC(=O)CN)c1ccc(Cl)cc1C(=O)c1ccccc1Cl [LORZAFONE ANHYDROUS]
GROUP: no (0)

COMPOUND: Cc1nnc(CNC(=O)CN)n1-c1ccc(Cl)cc1C(=O)c1ccccc1
GROUP: no (0)

COMPOUND: NCC(=O)NCc1nncn1-c1ccc(Cl)cc1C(=O)c1ccccc1
GROUP: no (0)

Consider the additional compound presented here.
query: Dear reviewer, please state whether Cc1nnc(CNC(=O)CN)n1-c1ccc(Cl)cc1C(=O)c1ccccc1F has ED50 strictly beneath 0.5 mg/kg.
result: yes (1)

* * *

species: Mus musculus; test: Sedative activity was determined by measuring the inhibition of spontaneous motor activity; format: functional
ENDPOINT_NAME: ED50 (mg/kg)
Kindly answer with a numeric value in mg/kg, unit omitted.

As a guide, the following entries are already answered.
COMPOUND: CN(C(=O)CNC(=O)CN)c1ccc(Cl)cc1C(=O)c1ccccc1Cl [LORZAFONE ANHYDROUS]
MEASURED_RESULT: 1.4
//
COMPOUND: Cc1nnc(CNC(=O)CN)n1-c1ccc(Cl)cc1C(=O)c1ccccc1Cl
MEASURED_RESULT: 0.31
//
COMPOUND: Cc1nnc2n1-c1ccc(Cl)cc1C(c1ccccc1)=NC2
MEASURED_RESULT: 0.94
//
COMPOUND: Cc1nnc(CNC(=O)C(N)Cc2ccccc2)n1-c1ccc(Cl)cc1C(=O)c1ccccc1Cl (stereo unspecified)
MEASURED_RESULT: 0.38
//
COMPOUND: Cc1nnc(CNC(=O)CN)n1-c1ccc(Cl)cc1C(=O)c1ccccc1F
MEASURED_RESULT: 1.52

query: What measured ED50 goes with Cc1nnc2n1-c1ccc(Cl)cc1C(c1ccccc1Cl)=NC2 ?
result: 0.054

query: What measured ED50 goes with NCC(=O)NCc1nncn1-c1ccc(Cl)cc1C(=O)c1ccccc1 ?
result: 31.7

query: What measured ED50 goes with Cc1nnc(CNC(=O)CN)n1-c1ccc(Cl)cc1C(=O)c1ccccc1 ?
result: 4.25

query: What measured ED50 goes with CN(C(=O)CNC(=O)CN)c1ccc(Cl)cc1C(=O)c1ccccc1 ?
result: 15.2

query: What measured ED50 goes with NCC(=O)NCc1nnc(C2CC2)n1-c1ccc(Cl)cc1C(=O)c1ccccc1Cl ?
result: 1.5

query: What measured ED50 goes with Clc1ccc2c(c1)C(c1ccccc1)=NCc1nncn1-2 ?
result: 3.09

* * *

Each entry below carries its reported ED50.
species: Mus musculus; test: Muscle relaxation was determined by using rotatory drum (rotarod) in mice, activity is expressed as ED50 values; type: functional
Kindly answer with a numeric value in mg/kg, unit omitted.

As a guide, the following entries are already answered.
COMPOUND: NCC(=O)NCc1nnc(C2CC2)n1-c1ccc(Cl)cc1C(=O)c1ccccc1Cl
ENDPOINT_NAME: ED50
MEASURED_RESULT: 18.7

COMPOUND: Cc1nnc(CNC(=O)C(N)Cc2ccccc2)n1-c1ccc(Cl)cc1C(=O)c1ccccc1Cl (stereo not given)
ENDPOINT_NAME: ED50
MEASURED_RESULT: 1.83

COMPOUND: Cc1nnc2n1-c1ccc(Cl)cc1C(c1ccccc1Cl)=NC2
ENDPOINT_NAME: ED50
MEASURED_RESULT: 0.83

COMPOUND: Cc1nnc(CNC(=O)CN)n1-c1ccc(Cl)cc1C(=O)c1ccccc1Cl
ENDPOINT_NAME: ED50
MEASURED_RESULT: 2.09

// below: ED50 requested for another compound
query: What measured ED50 goes with Cc1nnc2n1-c1ccc(Cl)cc1C(c1ccccc1)=NC2 ?
result: 2.22
